Data origin, for the record: patent US20240352133A1

- system-tested: Recombinant human his-tagged IGF 1R extracellular domain protein (human) (UniProt P08069)
- test-details: SPR, captured antibody, pH 7.4
property-name: Kd (nM)
Return type: number; implicit unit nM.

Record VRDN-03125 (antibody, V domains shown) VH: EVQLVESGGGVVQPGRSLRLSCAASGFTFDDYAMHWVRQAPGKGLEWVAVIWYDGSSKYYADSVKGRFTISRDNSKNTLYLQMNSLRAEDTAVYYCARELGRRYFDIWGQGTLVTVSS VL: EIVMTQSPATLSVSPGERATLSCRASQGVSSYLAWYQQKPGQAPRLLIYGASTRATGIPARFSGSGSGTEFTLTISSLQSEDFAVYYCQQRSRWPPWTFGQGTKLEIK , field Kd: 8.61

Record VRDN-03054 (antibody, V domains shown) VH: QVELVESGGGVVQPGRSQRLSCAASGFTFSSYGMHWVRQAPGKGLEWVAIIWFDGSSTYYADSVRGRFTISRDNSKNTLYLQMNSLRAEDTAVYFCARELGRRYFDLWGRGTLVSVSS VL: EIVLTQSPATLSLSPGERATLSCRASQSVSSYLAWYQQKPGQAPRLLIYDASKRHTGIPARFSGSGSGTDFTLTISSLEPEDFAVYYCQQRSKWPPWTFGQGTKVESK , field Kd: 1.11

Record VRDN-03049 (antibody, V domains shown) VH: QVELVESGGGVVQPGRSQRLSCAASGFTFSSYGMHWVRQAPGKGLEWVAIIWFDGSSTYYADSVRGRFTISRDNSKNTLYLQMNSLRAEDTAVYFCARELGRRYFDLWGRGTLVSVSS VL: EIVLTQSPATLSLSPGERATLSCRASQSVSSYLAWYQQKPGQAPRLLIYHASKRATGIPARFSGSGSGTDFTLTISSLEPEDFAVYYCQQRSKWPPWTFGQGTKVESK , field Kd: 1.56
